Values were extracted from patent US20240368267A1.

// reported koff for each item listed
molecular target: T1, human IL-6 (human, UniProt P05231 30-212); assay: SPR (Biacore T200), antibody from cell supernatant captured on Protein A, IL-6 flowed over, 37 C
T1 construct: also called interleukin-6
T1 sequence (P05231 30-212 limits assumed): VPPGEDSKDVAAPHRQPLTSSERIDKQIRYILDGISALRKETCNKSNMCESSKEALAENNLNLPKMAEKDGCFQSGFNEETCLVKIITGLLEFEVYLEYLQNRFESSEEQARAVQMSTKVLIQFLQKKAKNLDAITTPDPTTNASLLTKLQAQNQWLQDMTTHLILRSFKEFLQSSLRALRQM
// note: answer is a bare numeric in s⁻¹

BINDER	koff, s⁻¹
anti-IL-6 antibody, heavy chain T65H, G66D / light chain WT (antibody, human IgG1, V domains shown, Derived as m2; Engineered human IgG1) VH: EVQLVESGGGLVQPGGSLRLSCAASGFTFSPFAMSWVRQAPGKGLEWVAKISPGGSWTYYSDTVHDRFTFSLDTSKSTAYLQMNSLRAEDTAVYYCARQLWGYYALDIWGQGTLVTVSS VL: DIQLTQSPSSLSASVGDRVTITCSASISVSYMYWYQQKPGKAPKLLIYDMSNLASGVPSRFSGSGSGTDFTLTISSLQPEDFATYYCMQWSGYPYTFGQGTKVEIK	0.000356
anti-IL-6 antibody, heavy chain T65Y, G66D / light chain WT (antibody, human IgG1, V domains shown, Derived as m2; Engineered human IgG1) VH: EVQLVESGGGLVQPGGSLRLSCAASGFTFSPFAMSWVRQAPGKGLEWVAKISPGGSWTYYSDTVYDRFTFSLDTSKSTAYLQMNSLRAEDTAVYYCARQLWGYYALDIWGQGTLVTVSS VL: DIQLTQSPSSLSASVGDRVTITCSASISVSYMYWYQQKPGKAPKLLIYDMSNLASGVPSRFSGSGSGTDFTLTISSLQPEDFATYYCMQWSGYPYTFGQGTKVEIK	0.000361
anti-IL-6 antibody, heavy chain S35W, G66D / light chain WT (antibody, human IgG1, V domains shown, Derived as m2; Engineered human IgG1) VH: EVQLVESGGGLVQPGGSLRLSCAASGFTFSPFAMWWVRQAPGKGLEWVAKISPGGSWTYYSDTVTDRFTFSLDTSKSTAYLQMNSLRAEDTAVYYCARQLWGYYALDIWGQGTLVTVSS VL: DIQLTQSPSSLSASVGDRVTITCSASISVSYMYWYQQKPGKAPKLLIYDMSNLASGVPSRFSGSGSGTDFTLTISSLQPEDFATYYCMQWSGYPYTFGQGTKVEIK	0.00217
anti-IL-6 antibody, heavy chain T63F, G66D / light chain WT (antibody, human IgG1, V domains shown, Derived as m2; Engineered human IgG1) VH: EVQLVESGGGLVQPGGSLRLSCAASGFTFSPFAMSWVRQAPGKGLEWVAKISPGGSWTYYSDFVTDRFTFSLDTSKSTAYLQMNSLRAEDTAVYYCARQLWGYYALDIWGQGTLVTVSS VL: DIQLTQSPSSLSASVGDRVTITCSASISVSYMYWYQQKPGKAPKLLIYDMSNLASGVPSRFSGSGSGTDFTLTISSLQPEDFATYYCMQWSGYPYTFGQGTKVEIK	0.000401
anti-IL-6 antibody, heavy chain T65F, G66D / light chain WT (antibody, human IgG1, V domains shown, Derived as m2; Engineered human IgG1) VH: EVQLVESGGGLVQPGGSLRLSCAASGFTFSPFAMSWVRQAPGKGLEWVAKISPGGSWTYYSDTVFDRFTFSLDTSKSTAYLQMNSLRAEDTAVYYCARQLWGYYALDIWGQGTLVTVSS VL: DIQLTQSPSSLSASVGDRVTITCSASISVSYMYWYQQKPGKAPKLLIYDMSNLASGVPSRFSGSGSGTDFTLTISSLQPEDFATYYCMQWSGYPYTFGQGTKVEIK	0.000348
anti-IL-6 antibody, heavy chain S35V, G66D / light chain WT (antibody, human IgG1, V domains shown, Derived as m2; Engineered human IgG1) VH: EVQLVESGGGLVQPGGSLRLSCAASGFTFSPFAMVWVRQAPGKGLEWVAKISPGGSWTYYSDTVTDRFTFSLDTSKSTAYLQMNSLRAEDTAVYYCARQLWGYYALDIWGQGTLVTVSS VL: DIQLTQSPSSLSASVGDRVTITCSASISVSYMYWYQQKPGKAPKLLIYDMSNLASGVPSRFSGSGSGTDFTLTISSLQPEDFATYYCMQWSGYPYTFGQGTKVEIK	0.000469
anti-IL-6 antibody, heavy chain I51P, G66D / light chain WT (antibody, human IgG1, V domains shown, Derived as m2; Engineered human IgG1) VH: EVQLVESGGGLVQPGGSLRLSCAASGFTFSPFAMSWVRQAPGKGLEWVAKPSPGGSWTYYSDTVTDRFTFSLDTSKSTAYLQMNSLRAEDTAVYYCARQLWGYYALDIWGQGTLVTVSS VL: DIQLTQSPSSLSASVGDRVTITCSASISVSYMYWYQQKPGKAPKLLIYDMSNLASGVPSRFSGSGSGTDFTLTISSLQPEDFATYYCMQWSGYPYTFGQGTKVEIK	0.00612
anti-IL-6 antibody, heavy chain T63A, G66D / light chain WT (antibody, human IgG1, V domains shown, Derived as m2; Engineered human IgG1) VH: EVQLVESGGGLVQPGGSLRLSCAASGFTFSPFAMSWVRQAPGKGLEWVAKISPGGSWTYYSDAVTDRFTFSLDTSKSTAYLQMNSLRAEDTAVYYCARQLWGYYALDIWGQGTLVTVSS VL: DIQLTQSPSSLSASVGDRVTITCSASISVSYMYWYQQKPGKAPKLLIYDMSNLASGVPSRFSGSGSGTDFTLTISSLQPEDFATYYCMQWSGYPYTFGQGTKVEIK	0.000496
anti-IL-6 antibody, heavy chain I51G, G66D / light chain WT (antibody, human IgG1, V domains shown, Derived as m2; Engineered human IgG1) VH: EVQLVESGGGLVQPGGSLRLSCAASGFTFSPFAMSWVRQAPGKGLEWVAKGSPGGSWTYYSDTVTDRFTFSLDTSKSTAYLQMNSLRAEDTAVYYCARQLWGYYALDIWGQGTLVTVSS VL: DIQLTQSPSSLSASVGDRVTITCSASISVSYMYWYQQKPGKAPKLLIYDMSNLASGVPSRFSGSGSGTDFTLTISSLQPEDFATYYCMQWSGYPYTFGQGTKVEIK	0.000581

Now consider a different binder.
Specify koff for anti-IL-6 antibody, heavy chain T65Q, G66D / light chain WT (antibody, human IgG1, V domains shown, Derived as m2; Engineered human IgG1) VH: EVQLVESGGGLVQPGGSLRLSCAASGFTFSPFAMSWVRQAPGKGLEWVAKISPGGSWTYYSDTVQDRFTFSLDTSKSTAYLQMNSLRAEDTAVYYCARQLWGYYALDIWGQGTLVTVSS VL: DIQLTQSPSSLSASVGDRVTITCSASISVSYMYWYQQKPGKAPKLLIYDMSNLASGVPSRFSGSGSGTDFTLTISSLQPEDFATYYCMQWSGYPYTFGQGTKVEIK and stop.
0.000517
